# TEST SUMMARY: gradient 5% acetonitrile 3 min, to 50% in 2 min, to 85% in 15 min, held 3 min, 100 µL/min
# MEASUREMENT SETUP: column: Zorbax Extend-C18 2.1 x 50 mm; eluents: water / acetonitrile, 0.1% formic acid
PROPERTY: RP-LC retention time (s)

CC(C)Cn1c(CC2CCN(C(=O)COc3ccccc3)C2)nc2cccnc21 (stereo not given); 672
CN(Cc1ccco1)C(=O)Cn1cccc1-c1nnc(-c2ccccc2)o1; 919
Cc1sc2ccn(CC(C)C)c(=O)c2c1C(=O)NCc1ccccc1; 930
CCCNC(=O)C1CCCN(c2nc3ncn(CC(=O)N4CCc5ccccc5C4)c(=O)c3s2)C1 (stereo not given); 705
CCCC(NC(=O)c1cccc(OC)c1)C(=O)Nc1nc2ccccc2[nH]1 (stereo not given); 696
CC1(C)CS(=O)(=O)N(c2ccc(C(=O)N3CCN(c4ccccn4)CC3)cc2)C1=O; 608
Cc1ccc2ncn(C3CCN(C(=O)Nc4ccc(C)c(Cl)c4)CC3)c(=O)c2c1; 888
O=C(CSc1nc2ccccc2c(=O)n1Cc1cccs1)Nc1ncn[nH]1; 670
CCOc1ccc(C(=O)N2C[C@@H]3C[C@H]2C[C@@H]3NS(C)(=O)=O)cc1; 658
CCCC(=O)Nc1ccc2c(c1)CN(C(=O)c1cc(F)ccc1Cl)C(C(=O)N(C)C)C2 (stereo not given); 726

----------
# TEST SUMMARY: gradient 5% acetonitrile 3 min, to 50% in 2 min, to 85% in 15 min, held 3 min, 100 µL/min
# MEASUREMENT SETUP: column: Zorbax Extend-C18 2.1 x 50 mm; eluents: water / acetonitrile, 0.1% formic acid
PROPERTY: RP-LC retention time (s)

CCNC(=O)C1CCCN(c2nc3ncn(CC(=O)Nc4cc(Cl)ccc4C)c(=O)c3s2)C1 (stereo not given); 741
O=C(NC1CCCC1)C1CCCN(c2nc3ccsc3c(=O)n2Cc2ccc(F)cc2)C1 (stereo not given); 913
COc1ccc(/C=C\c2onc(C)c2NC(C)=O)cc1S(=O)(=O)N1CCN(c2ncccn2)CC1; 738
CCOC(=O)c1c(C)c(CCC(=O)N2CCCCCC2)n(C)c1C; 897
Cc1noc(C)c1-c1ccc(S(=O)(=O)NCCC(C)C)cc1; 954

----------
# TEST SUMMARY: gradient 5% acetonitrile 3 min, to 50% in 2 min, to 85% in 15 min, held 3 min, 100 µL/min
# MEASUREMENT SETUP: column: Zorbax Extend-C18 2.1 x 50 mm; eluents: water / acetonitrile, 0.1% formic acid
PROPERTY: RP-LC retention time (s)

Clc1ccc(Cl)c(-c2ccc(CNCc3ccncc3)o2)c1; 664
Cc1ccc(OCC(=O)Nc2ccc3c(c2)Sc2ncccc2C(=O)N3C)cc1; 866
Cc1cc(C)nc(Nc2nc(-c3ccccc3)c(CC(=O)O)s2)n1; 710
Cc1ccc(-n2c(N3CCC(C(=O)NC(C)c4ccc(F)cc4)CC3)nc3ccsc3c2=O)cc1 (stereo not drawn); 1010
Cc1cccc(NS(=O)(=O)c2c[nH]c3ncccc23)c1; 726
CCCC(NC(=O)c1cccc(N(C)C)c1)C(=O)Nc1nc2ccccc2[nH]1 (stereo not drawn); 667
Cc1cc(C)c(NC(=O)Cn2nc3c(Oc4ccccc4C)nccn3c2=O)c(C)c1; 894
O=C(c1ccco1)N1CCN(c2ncnc3c2cnn3Cc2ccccc2)CC1; 741

----------
# TEST SUMMARY: gradient 5% acetonitrile 3 min, to 50% in 2 min, to 85% in 15 min, held 3 min, 100 µL/min
# MEASUREMENT SETUP: column: Zorbax Extend-C18 2.1 x 50 mm; eluents: water / acetonitrile, 0.1% formic acid
PROPERTY: RP-LC retention time (s)

CCc1ccccc1N1C(=O)CC(N2CCC(C(N)=O)CC2)C1=O (stereo not given); 591
CCNC(=O)c1ccc2c(c1)CCCN2S(=O)(=O)CC; 709
CCOC(=O)c1cc2c([nH]c1=O)CC(c1ccccc1)CC2=O (stereo not given); 735
CC1(C(=O)NCc2ccc(Cl)cc2)Oc2cccnc2NC1=O (stereo not given); 725
CCN1C(=O)COc2ccc(-c3noc(C4CCCN(S(=O)(=O)c5ccc(C)cc5)C4)n3)cc21 (stereo not given); 1100
Cc1cc(C)cc(OCC(=O)N2CCCCC2CCN2CCOCC2)c1 (stereo not given); 668
CCc1nnc([C@@H]2CC(F)(F)CN2C(=O)Cc2c(C)noc2C)o1; 681
O=S(=O)(c1cnc[nH]1)N1CCC(c2nc(CCOc3ccc(F)cc3)no2)C1 (stereo not given); 762
CC1CCN(C(=O)CN(C)S(=O)(=O)c2ccc3c(c2)CCCC(=O)N3)CC1; 713
Cn1ncc(NC(=O)c2ccc(Cl)cc2)c(N2CCOCC2)c1=O; 771

----------
# TEST SUMMARY: gradient 5% acetonitrile 3 min, to 50% in 2 min, to 85% in 15 min, held 3 min, 100 µL/min
# MEASUREMENT SETUP: column: Zorbax Extend-C18 2.1 x 50 mm; eluents: water / acetonitrile, 0.1% formic acid
PROPERTY: RP-LC retention time (s)

Known RP-LC retention time results, listed for orientation:
CCC(C(=O)N1CCC(c2cc3n(n2)CCCNC3=O)CC1)c1ccccc1 (configuration not stated); 694
O=S(=O)(c1cccc2nsnc12)N1CCc2nc(-c3ccccc3)ncc2C1; 1000
O=C(NCc1ccc(N2CCCC2)nc1)c1ccc(Cl)s1; 634
CC1Oc2ccc(S(=O)(=O)N3CCC(C(=O)N4CCN(c5ccccc5)CC4)CC3)cc2NC1=O (configuration not stated); 848
CC(C)NC(=O)C1CCN(c2nc3ccc(-c4cccs4)nc3s2)CC1; 879
CC(=O)N1CCC2(CC1)CC(=O)c1ccc(O)c(O)c1O2; 585
CC(C)Cn1c(=O)c(-c2ccc(C(=O)NCc3cccnc3)cc2)nc2ccccc21; 693
CCc1cccc(C)c1NC(=O)CN1C(=O)NC2(CCCCC2)C1=O; 804

A: O=C(NCc1cc(F)cc(F)c1)c1c(O)c2cccnc2n(-c2ccc(F)cc2)c1=O
B: Cc1ccc(S(=O)(=O)Nc2ccc(C3(C(=O)NCC4CCCO4)CC3)cc2)cc1 (configuration not stated)
Select the item whose RP-LC retention time value is smaller, choosing between A and B . Please reply using the label of the selected record.
B
(B: 824 s, A: 1180 s)

1: O=C(Nc1cnc(-c2cccc(Cl)c2)nc1)c1ccc(Br)o1
2: O=C(CSc1cc(NCc2ccccc2Cl)ncn1)NC1CCCC1
For the two items 1 and 2 , which reports the higher RP-LC retention time value? Reply briefly: the label of your chosen item.
1

----------
# TEST SUMMARY: gradient 5% acetonitrile 3 min, to 50% in 2 min, to 85% in 15 min, held 3 min, 100 µL/min
# MEASUREMENT SETUP: column: Zorbax Extend-C18 2.1 x 50 mm; eluents: water / acetonitrile, 0.1% formic acid
PROPERTY: RP-LC retention time (s)

CN(C)c1ncncc1N1CCC(C(=O)NCCC2=CCCCC2)CC1; 679
CCc1cc(C2CCCN2C(=O)Nc2cccc(Cl)c2)on1 (configuration not stated); 924
Cc1ccc(Cl)cc1NC(=O)C1CCN(S(=O)(=O)c2cc(C(=O)N(C)C)cs2)CC1; 846
CCn1ccc2cc(S(=O)(=O)N3CCCC(C(=O)NCCC(C)C)C3)ccc21 (configuration not stated); 980
O=C(CSc1nnc(CCc2nc3ccccc3[nH]2)o1)Nc1nccs1; 556
COc1ccccc1Cc1noc(C2CN(C(=O)c3ccc(Cl)s3)C2)n1; 892

P: Cc1cc(C)cc(Nc2c(-c3ccc4c(c3)OCO4)nc3cnccn23)c1
Q: CCN1CCN(c2ccc(N3CCCC(C(=O)N4CCN(c5ccccn5)CC4)C3)nn2)CC1 (configuration not stated)
Which record shows the lower RP-LC retention time: the first, P , or the second, Q ? Output the label that corresponds to your choice.
Q

----------
# TEST SUMMARY: gradient 5% acetonitrile 3 min, to 50% in 2 min, to 85% in 15 min, held 3 min, 100 µL/min
# MEASUREMENT SETUP: column: Zorbax Extend-C18 2.1 x 50 mm; eluents: water / acetonitrile, 0.1% formic acid
PROPERTY: RP-LC retention time (s)

Previously resolved entries follow.
Cc1ccc2c(c1)C(c1ccccc1)N(C(=O)c1ccc([N+](=O)[O-])cc1)CC(=O)N2 (stereo not drawn); 834
O=C(NC1CCCC1)C1CCCN(S(=O)(=O)c2c[nH]c(C(=O)N3CCCC3)c2)C1 (stereo not drawn); 698
Cc1ccc(NC(=O)C2(C)Oc3cccnc3N(C)C2=O)cc1 (stereo not drawn); 845
CCCn1cc(CCNC(=O)c2ccccc2C)c2cccnc21; 748
CCn1cc(CCNC(=O)Nc2ccc(C)cc2Cl)c2cccnc21; 812
Cc1cc2c(cc1S(=O)(=O)N1CCN(c3ccccn3)CC1)n(C)c(=O)n2C; 606

I: FC1(c2nc(Cc3ccccc3)no2)CCN(Cc2ccsc2)CC1
II: COc1ccc(Cl)cc1NC(=O)Cn1cc2c(n1)CCCC2
Looking at recorded values for RP-LC retention time, does I or II come in lower? Could you answer with the label of the item you picked?
I
